- testTarget: Inadl_6, Q8NI35
- Sequence (Q8NI35 1058-1167): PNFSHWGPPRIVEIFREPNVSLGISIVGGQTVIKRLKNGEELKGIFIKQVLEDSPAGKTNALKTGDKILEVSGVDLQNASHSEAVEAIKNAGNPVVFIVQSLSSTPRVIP
- experiment: holdup assay
- Parameters: key: below the threshold = too weak to quantify, mostly under pKd 3.1 to 4
- testSettings: plain residues with an end cap or a label only (N-terminal biotin on a linker: ahx)
propertyMeasured: pKd

binder: ESLLLGPSNF [SHROOM4, Q9ULL8]
result: below the threshold
//
binder: TVICWPGSLV [LNX2, Q8N448]
result: 3.55
//
binder: PSASCAVTAA [PDLIM4, P50479;P50479-2]
result: below the threshold
//
binder: HNAFLSVTTV [PDZRN4, Q6ZMN7]
result: below the threshold
//
binder: GYDWGPATDL [TJP3, O95049]
result: 4.8
//
binder: LSDPSVSTVV [GRIN1, Q05586;Q05586-2]
result: below the threshold
//
binder: SDSSGQEYSL [KCTD3, Q9Y597]
result: below the threshold
//
binder: RAVEEEESRF [PSCDBP, O60759]
result: below the threshold
//
binder: NRKREIFSNF [NHERF2, Q15599]
result: below the threshold
//
binder: RRRKRKRTYL [HPV49-L2, P36762]
result: below the threshold
